Taken from the supplement of paper PMC10126150.

Tested on: ATP;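 also: ATP exposure 15 min at 22 °C before imaging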
Assay: switch fluorescence ratio, 500 uM ATP over buffer (Cy3 cluster intensity, sum of 5 cycles each) (fold (ratio)); higher = stronger signal-on switching upon ATP binding; sequences stand for … in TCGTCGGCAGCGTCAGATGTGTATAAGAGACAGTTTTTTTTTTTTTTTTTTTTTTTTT…TC
Details: aptamer strand: ATP DNA aptamer (quencher-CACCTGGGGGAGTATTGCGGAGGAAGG + anchor), 100 nM annealed; ATP concentration: 500 uM
Parameter: switch fluorescence ratio
Number, no unit, nothing else.

The cases that follow already have their switch fluorescence ratio on record.
1. TTCGGGGAAA 1.02
2. CCATAAGAAT 1.01
3. TGGGGGACGT 0.999
4. TCGTGGGGGT 0.979
5. TAGACGGGCA 1.01

Lookup result for `CTGTATAACG` ; measured switch fluorescence ratio: 0.998

Lookup result for `ATAGGTTTGT` ; measured switch fluorescence ratio: 0.989

Lookup result for `GGGAAAATCA` ; measured switch fluorescence ratio: 0.999

Lookup result for `GAGCTAGTCA` ; measured switch fluorescence ratio: 0.975

Lookup result for `GCACGTTTTT` ; measured switch fluorescence ratio: 1

Lookup result for `ATCATTATTG` ; measured switch fluorescence ratio: 1

Lookup result for `TCAACGCCCC` ; measured switch fluorescence ratio: 1.28

Lookup result for `GTTTTAAAAG` ; measured switch fluorescence ratio: 0.979
